Tested on: 422866-222-R5-J1-PDC spheroid viability;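 also: spheroids exposed to agents for seven days before readout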
Test: Anticancer human tumor 422866-222-R5-J1-PDC patient-derived pancreatic adenocarcinoma cell line growth inhibition [CLK]
Conditions: second compound 0.316 µM; first compound 0.00949 µM; active compounds read low; spheroids with HUVEC and MSC
Assignment: determine reported viability, T/C for the given compounds.

# COMPOUND, OBSERVED_VALUE
measured = [
    ("NC(=O)C(=Cn1cnc(-c2cc(C(F)(F)F)cc(C(F)(F)F)c2)n1)c1cncnc1 + CN1CCN(c2cc(C(=O)Nc3cc4cc(-c5cnn(C)c5)ccc4cn3)ccn2)CC1", "66.5%"),
]

Provide the reported viability, T/C of each entry below, same order.
1. NC(=O)C(=Cn1cnc(-c2cc(C(F)(F)F)cc(C(F)(F)F)c2)n1)c1cncnc1 + CNC(=O)c1ccc(Nc2nc(OC3CCCC3)c3c(-c4ccc5nc(C)oc5c4)c[nH]c3n2)c(OC)c1
2. CC(C)CC(NC(=O)C(Cc1ccccc1)NC(=O)c1cnccn1)B(O)O (stereo unspecified) + CN1CCN(c2cc(C(=O)Nc3cc4cc(-c5cnn(C)c5)ccc4cn3)ccn2)CC1
3. CC(C)CC(NC(=O)C(Cc1ccccc1)NC(=O)c1cnccn1)B(O)O (stereo unspecified) + CNC(=O)c1ccc(Nc2nc(OC3CCCC3)c3c(-c4ccc5nc(C)oc5c4)c[nH]c3n2)c(OC)c1
4. C=CC(=O)Nc1cc(Nc2nccc(-c3cn(C)c4ccccc34)n2)c(OC)cc1N(C)CCN(C)C + CNC(=O)c1ccc(Nc2nc(OC3CCCC3)c3c(-c4ccc5nc(C)oc5c4)c[nH]c3n2)c(OC)c1
5. C=CC(=O)Nc1cc(Nc2nccc(-c3cn(C)c4ccccc34)n2)c(OC)cc1N(C)CCN(C)C + CN1CCN(c2cc(C(=O)Nc3cc4cc(-c5cnn(C)c5)ccc4cn3)ccn2)CC1

1: 86.1%; 2: 4.02%; 3: 13.9%; 4: 68%; 5: 93.7%
